Assayed system: T1, EsCas13d, nuclease-dead (Eubacterium siraeum, UniProt B0MS50, R295A;H300A;R849A;H854A)
T1 sequence: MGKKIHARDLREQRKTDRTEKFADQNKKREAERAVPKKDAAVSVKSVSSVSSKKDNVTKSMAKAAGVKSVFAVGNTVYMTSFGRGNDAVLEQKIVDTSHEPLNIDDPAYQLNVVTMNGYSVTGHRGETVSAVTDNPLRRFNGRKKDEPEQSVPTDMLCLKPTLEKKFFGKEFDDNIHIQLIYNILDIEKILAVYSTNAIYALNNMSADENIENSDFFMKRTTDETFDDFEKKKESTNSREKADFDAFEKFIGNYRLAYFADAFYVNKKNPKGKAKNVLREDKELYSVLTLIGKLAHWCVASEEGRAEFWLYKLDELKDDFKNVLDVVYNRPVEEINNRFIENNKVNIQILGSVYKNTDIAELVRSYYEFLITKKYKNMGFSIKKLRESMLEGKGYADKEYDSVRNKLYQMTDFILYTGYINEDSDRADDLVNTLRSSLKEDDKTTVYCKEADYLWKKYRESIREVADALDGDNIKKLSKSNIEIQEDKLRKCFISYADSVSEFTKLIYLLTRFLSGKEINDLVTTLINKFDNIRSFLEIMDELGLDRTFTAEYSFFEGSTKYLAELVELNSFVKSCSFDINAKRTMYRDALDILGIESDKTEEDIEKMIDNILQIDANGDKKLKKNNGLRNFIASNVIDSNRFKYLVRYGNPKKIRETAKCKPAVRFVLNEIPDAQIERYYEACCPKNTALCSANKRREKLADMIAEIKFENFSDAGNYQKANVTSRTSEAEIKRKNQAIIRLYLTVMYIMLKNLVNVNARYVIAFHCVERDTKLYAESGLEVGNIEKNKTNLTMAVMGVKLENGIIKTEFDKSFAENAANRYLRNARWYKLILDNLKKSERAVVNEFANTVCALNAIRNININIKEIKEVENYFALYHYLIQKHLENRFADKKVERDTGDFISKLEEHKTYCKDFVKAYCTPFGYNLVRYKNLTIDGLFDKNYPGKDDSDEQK
Experiment: crRNA (strand 1, pre-loaded); Mg2+; 40 mM Tris-HCl pH 7.5, 150 mM NaCl, 6 mM MgCl2, 1 mM DTT, 0.1% Tween-20, 0.2 mg/ml BSA; 25 C; 10 min per concentration, then washed
Condition summary: tags: His6-TwinStrep-SUMO cleaved; N-terminal SNAP kept (SNAP-Surface 488); label: 3' end held by stalled T7 RNA polymerase

Binder	Kd / nM
target 1 insU 3' of 21,insG 3' of 8 (mixed) RNA 1: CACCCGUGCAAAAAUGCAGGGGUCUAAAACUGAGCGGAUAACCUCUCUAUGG RNA 2: GGGAAUGGAUCCACAUCUACGAAUUCGUACCUAUAGAGAGGUUAUGCCGCUCACCGAGAUCGGAAGAGCACACGU	34.9
target 3 del6,del8 (mixed) RNA 1: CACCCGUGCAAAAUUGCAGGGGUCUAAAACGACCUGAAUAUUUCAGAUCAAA RNA 2: GGGAAUGGAUCCACAUCUACGAAUUCGUUUUUGAUCUGAAAUAUAGGUCUGCAGAUCGGAAGAGCACACGU	70.5
target 2 MT 5'PFS AGA 3'PFS UAU (mixed) RNA 1: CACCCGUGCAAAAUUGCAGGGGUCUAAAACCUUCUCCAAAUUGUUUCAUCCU RNA 2: GGGAAUGGAUCCACAUCUACGAAUUCAGAAGGAUGAAACAAUUUGGAGAAGUAUAGAUCGGAAGAGCACACGU	7.4
target 1 U3G,A18C (mixed) RNA 1: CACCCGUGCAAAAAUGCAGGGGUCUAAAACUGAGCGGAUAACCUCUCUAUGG RNA 2: GGGAAUGGAUCCACAUCUACGAAUUCGUACCAUCGAGAGGUUAUCCGCGCACCGAGAUCGGAAGAGCACACGU	52
